experimental.system: DNA polymerase theta (Homo sapiens)
test.summary: Inhibition of human full length DNA polymerase theta ATPase activity by ADP-Glo assay
pIC50: −log10 of the molar value.
measured.property: pIC50

## Input Param item = Cc1cccc(N(C)C(=O)[C@@H]2[C@H](O)CCN2c2nc(C)cc(C(F)(F)F)c2C#N)c1 ; retrieve measured pIC50.
## Output < 4.92

* * *

experimental.system: DNA polymerase theta (Homo sapiens, UniProt O75417)
Sequence (O75417 whole entry): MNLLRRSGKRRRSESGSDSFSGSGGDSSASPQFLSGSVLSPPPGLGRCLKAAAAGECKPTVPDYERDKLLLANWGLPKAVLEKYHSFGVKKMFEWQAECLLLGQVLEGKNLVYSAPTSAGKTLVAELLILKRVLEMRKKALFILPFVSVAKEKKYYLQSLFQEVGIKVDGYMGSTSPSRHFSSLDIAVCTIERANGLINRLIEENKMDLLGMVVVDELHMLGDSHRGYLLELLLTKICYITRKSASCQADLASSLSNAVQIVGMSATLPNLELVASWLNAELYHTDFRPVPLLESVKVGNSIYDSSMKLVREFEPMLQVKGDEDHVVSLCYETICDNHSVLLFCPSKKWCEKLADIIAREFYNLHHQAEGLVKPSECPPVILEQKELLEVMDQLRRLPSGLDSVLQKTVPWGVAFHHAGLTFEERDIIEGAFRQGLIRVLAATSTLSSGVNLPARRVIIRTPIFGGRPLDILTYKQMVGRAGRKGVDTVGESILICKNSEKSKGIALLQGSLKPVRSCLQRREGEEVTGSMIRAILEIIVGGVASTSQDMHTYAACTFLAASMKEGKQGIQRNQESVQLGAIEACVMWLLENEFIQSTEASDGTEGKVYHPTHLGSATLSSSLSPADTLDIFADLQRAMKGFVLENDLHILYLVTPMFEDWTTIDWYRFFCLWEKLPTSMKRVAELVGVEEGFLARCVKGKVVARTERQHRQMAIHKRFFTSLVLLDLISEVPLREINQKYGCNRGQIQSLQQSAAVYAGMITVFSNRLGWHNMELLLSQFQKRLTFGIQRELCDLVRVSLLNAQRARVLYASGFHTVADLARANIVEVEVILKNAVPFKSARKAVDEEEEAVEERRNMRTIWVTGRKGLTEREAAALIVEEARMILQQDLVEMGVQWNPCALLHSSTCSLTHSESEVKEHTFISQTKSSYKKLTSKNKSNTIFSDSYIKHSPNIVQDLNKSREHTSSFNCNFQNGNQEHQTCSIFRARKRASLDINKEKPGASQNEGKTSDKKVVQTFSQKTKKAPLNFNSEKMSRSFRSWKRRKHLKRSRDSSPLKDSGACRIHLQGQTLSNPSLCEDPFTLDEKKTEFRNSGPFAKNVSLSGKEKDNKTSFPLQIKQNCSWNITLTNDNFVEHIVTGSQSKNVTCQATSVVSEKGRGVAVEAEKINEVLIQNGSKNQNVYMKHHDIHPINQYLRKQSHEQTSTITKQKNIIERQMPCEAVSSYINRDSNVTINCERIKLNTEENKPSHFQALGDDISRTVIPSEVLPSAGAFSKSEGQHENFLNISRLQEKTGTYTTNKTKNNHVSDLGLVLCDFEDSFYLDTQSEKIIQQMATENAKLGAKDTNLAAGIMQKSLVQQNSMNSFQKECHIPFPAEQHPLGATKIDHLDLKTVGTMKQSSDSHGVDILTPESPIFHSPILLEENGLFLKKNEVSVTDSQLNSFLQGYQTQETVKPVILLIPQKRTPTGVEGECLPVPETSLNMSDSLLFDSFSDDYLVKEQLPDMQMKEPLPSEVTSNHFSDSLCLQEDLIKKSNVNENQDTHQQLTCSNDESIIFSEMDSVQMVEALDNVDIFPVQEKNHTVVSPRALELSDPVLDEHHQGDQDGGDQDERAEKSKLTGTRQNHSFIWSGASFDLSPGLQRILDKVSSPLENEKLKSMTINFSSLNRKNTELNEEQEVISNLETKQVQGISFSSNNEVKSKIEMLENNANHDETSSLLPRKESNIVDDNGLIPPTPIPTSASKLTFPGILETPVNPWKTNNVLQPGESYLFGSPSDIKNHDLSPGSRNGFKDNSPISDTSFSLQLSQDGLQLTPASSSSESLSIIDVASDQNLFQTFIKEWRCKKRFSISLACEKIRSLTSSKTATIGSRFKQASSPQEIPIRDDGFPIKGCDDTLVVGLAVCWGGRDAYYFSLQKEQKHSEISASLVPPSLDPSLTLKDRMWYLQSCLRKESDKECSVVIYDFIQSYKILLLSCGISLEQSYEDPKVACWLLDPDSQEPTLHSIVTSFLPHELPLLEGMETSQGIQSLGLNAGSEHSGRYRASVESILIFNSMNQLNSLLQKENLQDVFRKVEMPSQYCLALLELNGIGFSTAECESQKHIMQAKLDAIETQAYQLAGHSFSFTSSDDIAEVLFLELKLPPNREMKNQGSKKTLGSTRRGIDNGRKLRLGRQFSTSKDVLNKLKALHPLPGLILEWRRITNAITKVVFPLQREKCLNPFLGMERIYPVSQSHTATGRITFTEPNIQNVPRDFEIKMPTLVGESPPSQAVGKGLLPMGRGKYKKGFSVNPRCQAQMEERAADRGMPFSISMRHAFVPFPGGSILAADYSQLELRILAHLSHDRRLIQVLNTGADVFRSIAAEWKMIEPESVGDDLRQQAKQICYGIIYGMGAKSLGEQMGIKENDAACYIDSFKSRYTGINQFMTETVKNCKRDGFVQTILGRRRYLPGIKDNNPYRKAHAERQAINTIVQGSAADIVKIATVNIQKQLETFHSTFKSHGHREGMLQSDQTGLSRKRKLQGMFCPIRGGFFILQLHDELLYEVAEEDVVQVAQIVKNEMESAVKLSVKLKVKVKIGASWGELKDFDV
test.summary: Displacement of tracer from recombinant Tb-labeled DNA polymerase theta (unknown origin) using DNA as substrate preincubated for 30 mins followed by compound addition for 2 hrs by HTRF assay
measured.property: Kd (nM)
The reply should be a number in nM, with the unit left off.

## Input # query: Kd | item Cc1cccc(N(C)C(=O)[C@@H]2[C@@H](O)CCN2c2nc(C)cc(C(F)(F)F)c2C#N)c1 | system: DNA polymerase theta (Homo sapiens, UniProt O75417)
## Output 24

## Input And then Cc1cccc(N(C)C(=O)[C@@H]2[C@H](O)CCN2c2nc(C)cc(C(F)(F)F)c2C#N)c1 , what is it?
## Output 4.8

## Input And then Cc1cccc(N(C)C(=O)[C@@H]2C[C@H](O)CN2c2nc(C)cc(C)c2C#N)c1 , what is it?
## Output 19

* * *

test.summary: Metabolic stability in human liver microsomes assessed as intrinsic clearance
Format: ADME, Microsome
assay.setup: read-out: CLH
Exercise: for every item that follows, state its recorded microsomal CLint.
The reply should be a number in µL/min/mg, with the unit left off.

## Input Param item = Cc1cc(C(F)(F)F)cc(N2C(=O)[C@@H](O)[C@@H](O)[C@H]2C(=O)N(C)c2ccc(F)c(Cl)c2)n1 ; retrieve measured microsomal CLint.
## Output 30

## Input And then Cc1cc(C(F)(F)F)cc(N2C(=O)[C@@H](O)C[C@H]2C(=O)N(C)c2ccc(F)c(Cl)c2)n1 , what is it?
## Output 60

* * *

test.summary: Oral bioavailability in mouse at 10 mg/kg
Assay type: ADME, organism-based
assay.setup: in vivo
measured.property: bioavailability (%)
The reply should be a number in %, with the unit left off.

## Input Param item = Cc1cc(C(F)(F)F)cc(N2C(=O)[C@@H](O)[C@@H](O)[C@H]2C(=O)N(C)c2ccc(F)c(Cl)c2)n1 ; retrieve measured bioavailability.
## Output 80

* * *

test.summary: Metabolic stability in rat liver microsomes assessed as intrinsic clearance
Assay type: ADME, Microsome
assay.setup: read-out: CLH
measured.property: microsomal CLint (µL/min/mg)
The reply should be a number in µL/min/mg, with the unit left off.

## Input Param item = CCN(C(=O)[C@@H]1[C@H](O)[C@H](O)C(=O)N1c1cc(C(F)(F)F)cc(C)n1)c1ccc(F)c(Cl)c1 ; retrieve measured microsomal CLint.
## Output 30

## Input And then Cc1cc(C(F)(F)F)cc(N2C(=O)[C@@H](O)[C@@H](O)[C@H]2C(=O)N(C)c2ccc(F)c(Cl)c2)n1 , what is it?
## Output 50

* * *

test.summary: Clearance in mouse plasma at 3 mg/kg, iv
Assay type: ADME, organism-based
measured.property: clearance (mL/min/kg)
The reply should be a number in mL/min/kg, with the unit left off.

## Input Param item = Cc1cc(C(F)(F)F)cc(N2C(=O)[C@@H](O)[C@@H](O)[C@H]2C(=O)N(C)c2ccc(F)c(Cl)c2)n1 ; retrieve measured clearance.
## Output 2.8
